# Tested on: T1, human C-KIT-Fc (human, UniProt P10721 26-524)
# T1 construct: also called biotinylated human C-KIT-Fc; not shown: Fc part not described
# Experimental protocol: direct titration ELISA on coated C-KIT-Fc, IgG1 format

Binder	binding result
MH5.4 (antibody, IgG1, V domains shown, IgG1) VH: QVQLVQSGAEVKKPGASVKVSCKASGYTFTDHYMNWVRQAPGQGLEWMGRIYPGTGNTYYAQKFQGRVTMTRDTSTSTVYMELSSLRSEDTAVYYCARGVWYFDSWGQGTLVTVSS VL: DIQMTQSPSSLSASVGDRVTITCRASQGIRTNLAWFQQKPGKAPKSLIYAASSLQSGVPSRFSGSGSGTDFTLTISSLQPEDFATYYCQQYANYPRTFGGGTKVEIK	binds

Cited source for all entries: patent US20200283521A1
